Assayed target: Potassium-transporting ATPase (Rattus norvegicus) (UniProt P09626+P18598)
Assay text: Inhibition of pentagastrin-stimulated gastric acid secretion at a single dose of 10 umol/kg.
Assay type: functional
Recorded conditions: Stomach
Measured attribute: inhibition (%)
Dear colleague, please return just the value in %, with no unit written.

What value of measured inhibition is listed for `CCCC(=O)c1cnc2c(NCCO)cccc2c1Nc1ccccc1C` ?
62

What value of measured inhibition is listed for `CCCC(=O)c1cnc2c(/C=C/CO)cccc2c1Nc1ccccc1C` ?
68

What value of measured inhibition is listed for `CCCC(=O)c1cnc2c(OC)cccc2c1Nc1c(C)cc2c(c1C)OCO2` ?
51

What value of measured inhibition is listed for `CCCC(=O)c1cnc2c(OCCCN3CCCC3)cccc2c1Nc1ccccc1C` ?
31

What value of measured inhibition is listed for `CCCC(=O)c1cnc2c(OCCN(C)C)cccc2c1Nc1ccccc1C` ?
22

What value of measured inhibition is listed for `CCCC(=O)c1cnc2c(OC)cc(O)cc2c1Nc1ccccc1C` ?
63

What value of measured inhibition is listed for `CCCC(=O)c1cnc2c(OC)cccc2c1Nc1ccccc1CO` ?
33

What value of measured inhibition is listed for `CCCC(=O)c1cnc2c(OC)cccc2c1Nc1ccc(N)cc1C` ?
15

What value of measured inhibition is listed for `CCCC(=O)c1cnc2c(C)cccc2c1Nc1cc(OC)ccc1OC` ?
28

What value of measured inhibition is listed for C=CC(O)c1cccc2c(Nc3ccccc3C)c(C(=O)CCC)cnc12 (stereo not given) ?
49

What value of measured inhibition is listed for CCCC(=O)c1cnc2c(C(O)CN(C)C)cccc2c1Nc1ccccc1C (stereo not given) ?
11

What value of measured inhibition is listed for `CCCC(=O)c1cnc2c(OC)cccc2c1Nc1cccc(C)c1C` ?
60

What value of measured inhibition is listed for `CCCC(=O)c1cnc2cc(O)ccc2c1Nc1ccccc1C` ?
56

What value of measured inhibition is listed for `CCC(=O)c1cnc2c(O)cccc2c1Nc1ccccc1C` ?
45

* * *

Assayed target: Potassium-transporting ATPase (Sus scrofa, UniProt P19156)
Sequence (P18434 whole entry): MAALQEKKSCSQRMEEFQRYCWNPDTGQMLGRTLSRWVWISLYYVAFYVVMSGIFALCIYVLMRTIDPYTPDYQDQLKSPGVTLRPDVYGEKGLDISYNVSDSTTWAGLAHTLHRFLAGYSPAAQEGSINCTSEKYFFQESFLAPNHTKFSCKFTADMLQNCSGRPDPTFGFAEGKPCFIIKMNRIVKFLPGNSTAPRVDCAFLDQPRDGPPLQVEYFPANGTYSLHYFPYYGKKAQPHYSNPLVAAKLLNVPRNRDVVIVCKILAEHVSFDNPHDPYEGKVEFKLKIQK
Sequence (P19156 whole entry): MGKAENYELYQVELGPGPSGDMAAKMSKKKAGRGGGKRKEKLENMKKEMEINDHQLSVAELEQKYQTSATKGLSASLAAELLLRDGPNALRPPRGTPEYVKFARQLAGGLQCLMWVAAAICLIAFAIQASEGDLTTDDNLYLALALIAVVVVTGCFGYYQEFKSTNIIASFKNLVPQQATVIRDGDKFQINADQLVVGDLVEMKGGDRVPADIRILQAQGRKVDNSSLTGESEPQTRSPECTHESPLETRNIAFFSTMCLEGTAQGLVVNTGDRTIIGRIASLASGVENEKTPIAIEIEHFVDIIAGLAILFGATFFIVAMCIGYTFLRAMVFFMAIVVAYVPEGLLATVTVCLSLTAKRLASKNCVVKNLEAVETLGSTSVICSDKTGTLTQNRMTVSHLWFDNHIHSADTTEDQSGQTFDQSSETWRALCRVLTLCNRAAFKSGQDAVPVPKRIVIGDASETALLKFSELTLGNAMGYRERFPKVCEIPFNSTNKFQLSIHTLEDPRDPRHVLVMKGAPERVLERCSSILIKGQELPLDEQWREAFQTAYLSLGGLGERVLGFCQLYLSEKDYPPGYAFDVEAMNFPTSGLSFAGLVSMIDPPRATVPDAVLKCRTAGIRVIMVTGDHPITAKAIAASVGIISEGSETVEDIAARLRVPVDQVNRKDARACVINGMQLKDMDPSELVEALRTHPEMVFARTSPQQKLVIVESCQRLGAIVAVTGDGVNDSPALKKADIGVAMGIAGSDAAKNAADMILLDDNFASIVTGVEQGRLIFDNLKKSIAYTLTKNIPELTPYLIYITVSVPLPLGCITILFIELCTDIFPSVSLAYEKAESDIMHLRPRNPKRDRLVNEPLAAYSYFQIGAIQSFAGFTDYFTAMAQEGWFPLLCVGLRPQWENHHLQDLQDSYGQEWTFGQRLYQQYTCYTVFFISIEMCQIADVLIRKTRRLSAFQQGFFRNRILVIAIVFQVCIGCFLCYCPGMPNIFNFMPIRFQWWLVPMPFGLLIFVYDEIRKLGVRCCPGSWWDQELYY
Assay text: Inhibition of K+ -stimulated gastric ATPase activity was measured using lyophilized gastric vesicles at pH 7
Assay type: tissue-based, Stomach
pIC50: −log10 of the molar value.
Use 6 as the dividing line for pIC50, with the line itself on the Fulfilled side and lower values as Not fulfilled.

Observe how each entry below is paired with its result.
Is reported pIC50 greater than or equal to 6 here: `CCCC(=O)c1cnc2c(OCCCNC(C)=O)cccc2c1Nc1c(C)cccc1C`
Not fulfilled

Is reported pIC50 greater than or equal to 6 here: `CCC(=O)c1cnc2c(OCCO)cccc2c1Nc1ccc(F)cc1C`
Not fulfilled

Is reported pIC50 greater than or equal to 6 here: CCCC(=O)c1cnc2c(C3COCO3)cccc2c1Nc1ccccc1C (stereo unspecified)
Not fulfilled

Is reported pIC50 greater than or equal to 6 here: `CCCC(=O)c1cnc2c(OCCCN3CCCC3)cccc2c1Nc1ccccc1C`
Fulfilled

Turning now to a further record.
Is reported pIC50 greater than or equal to 6 here: `CCCC(=O)c1cnc2c(OC)cccc2c1Nc1ccccc1OCC`
Not fulfilled

* * *

Assayed target: Potassium-transporting ATPase (Rattus norvegicus) (UniProt P09626+P18598)
Assay text: Inhibition of pentagastrin-stimulated gastric acid secretion at a single dose of 10 umol/kg.
Format: functional
Recorded conditions: Stomach
Quick reference for inhibition among some molecules
Dear colleague, please return just the value in %, with no unit written.

// worked examples, inhibition included
What value of measured inhibition is listed for `CCCC(=O)c1cnc2c(O)cccc2c1Nc1ccccc1C` ?
39

What value of measured inhibition is listed for `CCCC(=O)c1cnc2ccc(N)cc2c1Nc1c(C)cccc1C` ?
35

What value of measured inhibition is listed for `CCCC(=O)c1cnc2c(Oc3ccnc(Cl)c3)cccc2c1Nc1ccccc1C` ?
33

What value of measured inhibition is listed for `CCCC(=O)c1cnc2c(NCCCN3CCOCC3)cccc2c1Nc1ccccc1C` ?
47

What value of measured inhibition is listed for CCCC(=O)c1cnc2c(C(O)CN3CCOCC3)cccc2c1Nc1ccccc1C (stereo not drawn) ?
4

Continuing:
What value of measured inhibition is listed for `CCCC(=O)c1cnc2c(OCCO)cccc2c1Nc1ccc(O)cc1C` ?
70

What value of measured inhibition is listed for `CCCC(=O)c1cnc2c(OC)cccc2c1Nc1cccc(CO)c1C` ?
44

What value of measured inhibition is listed for `CCCC(=O)c1cnc2c(OC)cccc2c1Nc1cc(CO)ccc1C` ?
25

What value of measured inhibition is listed for `CCCC(=O)c1cnc2c(OCCCN(C)CCCc3ccccc3)cccc2c1Nc1ccccc1C` ?
52

What value of measured inhibition is listed for `CCCC(=O)c1cnc2c(C)cccc2c1Nc1ccccc1F` ?
29

What value of measured inhibition is listed for `CCC(=O)c1cnc2c(O)cccc2c1Nc1ccc(F)cc1C` ?
48

What value of measured inhibition is listed for `CCCC(=O)c1cnc2c(OC)cccc2c1Nc1ccc(O)cc1` ?
39

What value of measured inhibition is listed for `CCCC(=O)c1cnc2c(C(C)=O)cccc2c1Nc1ccccc1C` ?
37

What value of measured inhibition is listed for `CCCC(=O)c1cnc2c(CC(=O)OC)cccc2c1Nc1ccccc1C` ?
43

What value of measured inhibition is listed for `CCC(=O)c1cnc2c(CO)cccc2c1Nc1ccc(O)cc1C` ?
90

What value of measured inhibition is listed for `CCCC(=O)c1cnc2ccc(CO)cc2c1Nc1ccccc1C` ?
46

What value of measured inhibition is listed for `CCCC(=O)c1cnc2c(C(C)=O)cccc2c1Nc1ccc(O)cc1C` ?
44

What value of measured inhibition is listed for `CCCC(=O)c1cnc2c(OC)cccc2c1Nc1ccccc1O` ?
41

What value of measured inhibition is listed for `CCCC(=O)c1cnc2c(OCCCO)cccc2c1Nc1c(C)cccc1C` ?
75

What value of measured inhibition is listed for `CCCC(=O)c1cnc2c(OCCCc3c[nH]cn3)cccc2c1Nc1c(C)cccc1C` ?
40

What value of measured inhibition is listed for `CCCC(=O)c1cnc2c(OC)cc(O)cc2c1Nc1ccc(F)cc1C` ?
54

What value of measured inhibition is listed for `CCCC(=O)c1cnc2c(OC)cccc2c1Nc1c(C)cc(O)c(O)c1C` ?
50

What value of measured inhibition is listed for `CCCC(=O)c1cnc2c(OC)cccc2c1Nc1cc(C)cc(C)c1` ?
39

* * *

Assayed target: Potassium-transporting ATPase (Rattus norvegicus) (UniProt P09626+P18598)
Assay text: Inhibition of pentagastrin-stimulated gastric acid secretion at a single dose of 10 umol/kg.
Assay type: functional
Recorded conditions: Stomach
Measured attribute: inhibition
Don't forget the unit after the value.

What value of measured inhibition is listed for `CCCC(=O)c1cnc2c(OCCOCCOCCO)cccc2c1Nc1ccc(F)cc1C` ?
51%

Would you kindly look at the next entry?
What value of measured inhibition is listed for `CCCC(=O)c1cnc2c(OC)cccc2c1Nc1ccc(N(C)C)cc1C` ?
20%

* * *

Assayed target: Potassium-transporting ATPase (Rattus norvegicus) (UniProt P09626+P18598)
Assay text: Inhibition of pentagastrin-stimulated gastric acid secretion in the anesthetized rat after iv administration
Format: functional, organism-based
Recorded conditions: Stomach
Param label: returns 1 when ED50 < 4 µmol/kg, returns -1 otherwise, including exact equality.

Observe how each entry below is paired with its result.
In the record for `CCCC(=O)c1cnc2c(C)cccc2c1Nc1c(C)cccc1C` , is ED50 less than 4 µmol/kg?
1

In the record for `CCC(=O)c1cnc2c(OCCO)cccc2c1Nc1ccccc1C` , is ED50 less than 4 µmol/kg?
1

In the record for `CCCC(=O)c1cnc2c(OC)cccc2c1Nc1ccccc1C` , is ED50 less than 4 µmol/kg?
1

In the record for `COCCOc1cccc2c(Nc3ccccc3C)c(C(=O)C(C)C)cnc12` , is ED50 less than 4 µmol/kg?
1

In the record for `CCCC(=O)c1cnc2c(C)cccc2c1Nc1ccc(OC)cc1C` , is ED50 less than 4 µmol/kg?
-1

Continuing:
In the record for `CCCC(=O)c1cnc2c(OC)cccc2c1Nc1c(C)ccc(O)c1C` , is ED50 less than 4 µmol/kg?
-1

In the record for `CCCC(=O)c1cnc2c(F)cccc2c1Nc1ccc(O)cc1C` , is ED50 less than 4 µmol/kg?
-1

In the record for `CCCC(=O)c1cnc2c(OCCO)cccc2c1Nc1ccccc1C` , is ED50 less than 4 µmol/kg?
1

In the record for `CCCC(=O)c1cnc2c(OC)cccc2c1Nc1ccc(OC)cc1C` , is ED50 less than 4 µmol/kg?
-1

In the record for `CCCC(=O)c1cnc2c(OCCO)cccc2c1Nc1ccc(F)cc1C` , is ED50 less than 4 µmol/kg?
1

In the record for `CCCC(=O)c1cnc2c(C)cccc2c1Nc1ccccc1C` , is ED50 less than 4 µmol/kg?
1

In the record for `CCCC(=O)c1cnc2c(OC)cccc2c1Nc1c(C)cc(O)cc1C` , is ED50 less than 4 µmol/kg?
-1
